tested on: Human immunodeficiency virus 1; assay: Antiviral activity against Human immunodeficiency virus 1 infected in human 293T cells assessed as inhibition of viral replication after 48 hrs by luminescence analysis; format: functional, organism-based; settings: Human immunodeficiency virus 1, HEK-293T
pIC50: −log10 of the molar value.
valueKind: pIC50

Some solved entries appear below for comparison.
# value of pIC50, Human immunodeficiency virus 1, item O=C(O)c1[nH]c2ccc(Cl)cc2c1C1(c2ccccc2)CC1 = 4.55

# value of pIC50, Human immunodeficiency virus 1, item NC(=O)c1[nH]c2ccc(Cl)cc2c1C1(c2ccccc2)CC1 = 7.02

# value of pIC50, Human immunodeficiency virus 1, item CCOC(=O)c1[nH]c2ccc(Cl)cc2c1C1(c2cccs2)CC1 = 7.19

# value of pIC50, Human immunodeficiency virus 1, item CCOC(=O)c1[nH]c2ccc(Cl)cc2c1C1(C)CC1 = 5.65

# value of pIC50, Human immunodeficiency virus 1, item OCc1[nH]c2ccc(Cl)cc2c1C1(c2cccs2)CC1 = 4.84

[a] CCOC(=O)c1[nH]c2ccc(Cl)cc2c1C1(c2ccccc2)CC1
[b] OCc1[nH]c2ccc(Cl)cc2c1C1(c2ccccc2)CC1
Req: Between a and b , which one shows the smaller pIC50 number? Refer to your chosen item by its label in the answer.
Resp: b

[1] O=C(O)c1[nH]c2ccc(Cl)cc2c1C1(c2cccs2)CC1
[2] CCOC(=O)c1[nH]c2ccc(Br)cc2c1C1(c2ccccc2)CC1
[3] NC(=O)c1[nH]c2ccc(Cl)cc2c1C1(c2cccs2)CC1
Req: In this exercise, place the 3 compounds in ascending sequence of their recorded pIC50. # the answer lists labels in the order requested
Resp: 1, 3, 2

* * *

# key: entry, value: CC50 at 48 h
experiment: Cytotoxicity against human 293T cells after 48 hrs by colorimetric analysis; format: cell-based; conditions: HEK-293T cells
Field: numeric (µM). Do not append units.

Form field CC50 at 48 h, entry NC(=O)c1[nH]c2ccc(Cl)cc2c1C1(c2ccccc2)CC1 : 14.2

Form field CC50 at 48 h, entry OCc1[nH]c2ccc(Cl)cc2c1C1(c2ccccc2)CC1 : 34.1

Form field CC50 at 48 h, entry CCOC(=O)c1[nH]c2ccc(Cl)cc2c1C1(C)CC1 : 44.3

Form field CC50 at 48 h, entry CCOC(=O)c1[nH]c2ccc(Cl)cc2c1C1(c2ccccc2)CC1 : 30.3

---
Form field CC50 at 48 h, entry CCOC(=O)c1[nH]c2ccc(Br)cc2c1C1(c2ccccc2)CC1 : 24.5
